target: VmFbpA (ferric ion-binding protein A) (Vibrio metschnikovii); construct: gene H8Q88_11990; WP_004394209.1 without the signal peptide '[…]'; 6× His-tag-free apo VmFbpA; test: ITC of RA into apo VmFbpA (single-site model); supported by UV-vis peak shift and Fe3+ pull-down inhibition by ICP-MS (IC50 […])
Sequence (A0A9X0R8I3 entry or part of it): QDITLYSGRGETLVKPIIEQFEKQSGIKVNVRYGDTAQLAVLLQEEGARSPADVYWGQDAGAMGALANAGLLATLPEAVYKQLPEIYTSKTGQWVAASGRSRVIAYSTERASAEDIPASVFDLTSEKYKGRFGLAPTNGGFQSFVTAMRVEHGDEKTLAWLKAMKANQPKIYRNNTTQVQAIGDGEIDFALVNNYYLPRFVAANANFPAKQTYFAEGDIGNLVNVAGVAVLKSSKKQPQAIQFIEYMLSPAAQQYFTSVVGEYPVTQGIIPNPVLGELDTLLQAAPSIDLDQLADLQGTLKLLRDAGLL

| smiles representation | output unit | Kd |
| --- | --- | --- |
| O=C(/C=C/c1ccc(O)c(O)c1)O[C@H](Cc1ccc(O)c(O)c1)C(=O)O | µM | 8 |
